# TEST DESCRIPTION: Quantitative High-Throughput drug screen in 47 multiple myeloma cell lines against the NCATS MIPE library collection: VP6_DJ cell viability assay (AID 1919867); further: nearly all actives have a fitted effect of over 40% in size; further: potency means the concentration at half of the fitted maximal effect
# PARTICULARS: ATP luminescence, 48 h; series mostly up to 45.8 µM
Inconclusive results are not listed. Calls of active or inactive are those of the source. The call rests on the fitted dose curve; in most records, active means well fitted cell-killing curve with a large enough effect; inconclusive means small, poorly fitted or top-dose-only effect, or effect the other way; inactive means no such curve, though single readings can be large or run the other way.
ENDPOINT NAME: Potency

C[C@H]1COC2=C1C(=O)C(=O)c1c2ccc2c1CCCC2(C)C; 16.6 µM (active)
Cc1nn(Cc2ccccc2Cl)c(C)c1CN(C)CC(O)COc1ccc(Cl)cc1 (stereo not given); 20.9 µM (active)
CC(=O)O[C@]1(C(C)=O)CC[C@H]2[C@@H]3C=C(Cl)C4=CC(=O)[C@@H]5C[C@H]5[C@]4(C)[C@@H]3CC[C@@]21C; 7.43 µM (active)
O=C(NC[C@H](O)CO)c1ccncc1Nc1ccc(I)cc1F; 10.5 µM (active)
O=C(C=Cc1ccc(O)cc1)c1ccc(O)cc1O; 18.7 µM (active)

Query string: Can you share its Potency? I mean this compound: "CCc1cccc(CC)c1NC(=O)N1Cc2[nH]nc(NC(=O)c3ccc(N4CCN(C)CC4)cc3)c2C1"
Result string: 5.9 µM (active)

Query string: Please do the same for "COc1cc2nc(-c3cc(F)ccc3O)nc(N[C@@H]3CNC[C@@H]3C(C)(C)O)c2cc1OC" as well.
Result string: 5.26 µM (active)

Query string: Now the same for CN1CCN2c3ncccc3Cc3ccccc3C2C1 (stereo not given)
Result string: inactive

Query string: Follow-up item: CCNC(=O)CCCC=CC[C@@H]1[C@H](C=CC(O)CCc2ccccc2)[C@@H](O)C[C@@H]1O (stereo not given in full)
Result string: inactive

Query string: Then "CC[C@H](CC#N)OC(=O)N[C@@H](C)c1cccc(NC(=O)Nc2ccc(-c3cnco3)c(OC)c2)c1" ?
Result string: 1.32 µM (active)
